Measured values drawn from ChEMBL document CHEMBL1154618 for this set.

Ki, Kappa-type opioid receptor (Cavia porcellus): measured values
Non-standard residues stand in square brackets, D forms with d. Residues, ends and D or L forms follow the SMILES beside them. Phe(2,6-Me2,4-CONH2) = Cc1cc(C(N)=O)cc(C)c1C[C@H](N)C(=O)O; Dmt = Cc1cc(O)cc(C)c1C[C@H](N)C(=O)O; Tic = O=C(O)[C@@H]1Cc2ccccc2CN1

In: Quick one: Ki of Cc1cc(O)cc(C)c1C[C@H](N)C(=O)N1Cc2ccccc2C[C@H]1C(=O)N[C@@H](Cc1ccccc1)C(=O)N[C@@H](Cc1ccccc1)C(=O)O (H-[Dmt][Tic]FF-OH) ?
Out: > 1000 nM

In: Another compound to check: N[C@@H](Cc1ccc(O)cc1)C(=O)N1Cc2ccccc2C[C@H]1C(=O)N[C@@H](Cc1ccccc1)C(=O)N[C@@H](Cc1ccccc1)C(=O)O (H-Y[Tic]FF-OH)
Out: > 1000 nM

In: Another compound to check: Cc1cc(O)cc(C)c1C[C@H](N)C(=O)N1Cc2ccccc2C[C@H]1C(=O)O (H-[Dmt]-[Tic]-OH)
Out: > 1000 nM

In: Another compound to check: N[C@@H](Cc1ccc(O)cc1)C(=O)N1Cc2ccccc2C[C@H]1C(=O)O (H-Tyr-[Tic]-OH)
Out: > 10000 nM

In: Another compound to check: Cc1cc(C(N)=O)cc(C)c1C[C@H](N)C(=O)N1Cc2ccccc2C[C@H]1C(=O)N[C@@H](Cc1ccccc1)C(=O)N[C@@H](Cc1ccccc1)C(=O)O (H-[Phe(2,6-Me2,4-CONH2)][Tic]FF-OH)
Out: > 1000 nM

----------
- STUDY_TARGET: Mu-type opioid receptor (Cavia porcellus, UniProt P97266)
- Sequence (P97266 whole entry): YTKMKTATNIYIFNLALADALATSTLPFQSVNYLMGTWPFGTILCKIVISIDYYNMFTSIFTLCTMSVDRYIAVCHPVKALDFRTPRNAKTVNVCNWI
- TEST_SUMMARY: Agonist activity at mu opioid receptor in guinea pig ileum assessed as effect on muscle contraction
- Type: functional, tissue-based
- TEST_CONDITIONS: read-out: IC50
Non-standard residues stand in square brackets, D forms with d. Residues, ends and D or L forms follow the SMILES beside them. Dmt = Cc1cc(O)cc(C)c1C[C@H](N)C(=O)O; Tic = O=C(O)[C@@H]1Cc2ccccc2CN1
VALUE_TYPE: IC50

In: Item: Cc1cc(O)cc(C)c1C[C@H](N)C(=O)N1Cc2ccccc2C[C@H]1C(=O)N[C@@H](Cc1ccccc1)C(=O)N[C@@H](Cc1ccccc1)C(=O)O (H-[Dmt][Tic]FF-OH) Test system: Mu-type opioid receptor (Cavia porcellus, UniProt P97266) Read-out: IC50 Value: ?
Out: 769 nM

In: Another compound to check: N[C@@H](Cc1ccc(O)cc1)C(=O)N1Cc2ccccc2C[C@H]1C(=O)N[C@@H](Cc1ccccc1)C(=O)N[C@@H](Cc1ccccc1)C(=O)O (H-Y[Tic]FF-OH)
Out: > 10000 nM
